Target: T1, human GPVI-Fc fusion protein (human, UniProt Q9HCN6 21-267, limits assumed)
T1 construct: also called human GPVI protein antigen
T1 sequence (looked up): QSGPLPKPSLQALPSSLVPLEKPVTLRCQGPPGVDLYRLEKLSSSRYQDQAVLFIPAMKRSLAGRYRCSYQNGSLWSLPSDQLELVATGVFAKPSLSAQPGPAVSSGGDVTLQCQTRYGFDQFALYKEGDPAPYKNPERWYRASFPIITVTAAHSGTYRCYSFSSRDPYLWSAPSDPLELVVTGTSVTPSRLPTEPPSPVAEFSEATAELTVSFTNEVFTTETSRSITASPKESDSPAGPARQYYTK
Assay: BLI (Octet), GPVI-Fc on biosensor, 1:1 fit
Assignment: determine reported kon for the given binders.
Reply with just the number (in M⁻¹ s⁻¹).

Problem: Please give the documented kon of HC4 LC1 humanized Fab (Fab, V domains shown, also called VH4:VL1) VH: QVQLVESGGGVVQPGRSLRLSCAASGFSLTSYGVTWVRQSPGKGLEWVAVIWGDGSTNYHSGLRSRLTISRDNSKNTLYLEMNSLRTEDTATYYCAKPIYYDFDDDAMDYWGQGTKVTVSS VL: EIVLTQSPSSLSASVGDRVTITCKASQNVGTYVAWFQQKPGKAPKSLIYSASYRCSGVPSKFSGSGSGTDFTLTISSLQPEDFATYYCHQYNNYPLTFGQGTKLEIKR
Result: 797000

Problem: Please give the documented kon of HC0 LC0 chimeric Fab fragment (Fab, V domains shown, Murine variable domains with human Ig constant domains, expressed in CHO; also called HC0 LCD; chimeric control antibody) VH: QVQLKESGPGLVQPSQSLSITCTVSGFSLTSYGVTWVRQPPGKGLEWLGVIWGDGSTNYHSGLRSRLSISRDDSKSQVFLKLNSLQTDDTATYYCAKPIYYDFDDDAMDYWGQGTSVTVSS VL: DIVMTQSQKFMSTSVGDRVSVTCKASQNVGTYVAWFQQKPGQSPKTLIYSASYRCSGVPDRFTGSGSGTDFTLTISNVQSDDLAEYFCHQYNNYPLTFGAGTKLELRR
Result: 496000

Problem: Please give the documented kon of HC2 LC1 humanized Fab (Fab, V domains shown, also called VH2:VL1) VH: EVQLVESGPGLVKPSETLSLTCTVSGFSLTSYGVTWIRQPPGKGLEWIGVIWGDGSTNYHSGLRSRVTISVDTSKNQFSLKLSSVTAADTAVYYCAKPIYYDFDDDAMDYWGQGTLVTVSS VL: EIVLTQSPSSLSASVGDRVTITCKASQNVGTYVAWFQQKPGKAPKSLIYSASYRCSGVPSKFSGSGSGTDFTLTISSLQPEDFATYYCHQYNNYPLTFGQGTKLEIKR
Result: 703000

Problem: Please give the documented kon of HC3 LC4 humanized Fab (Fab, V domains shown, also called VH3:VL4) VH: QVQLVESGGGVVQPGRSLRLSCVASGFSLTSYGVTWVRQAPGKGLEWVAVIWGDGSTNYHSGLRSRFTISRDNSKNTMFLQMNSLRADDTAVYYCAKPIYYDFDDDAMDYWGQGTLVTVSS VL: DIVMTQSPATLSLSPGDRATLSCKASQNVGTYVAWYQQKPGQAPRLLIYSASYRCSGIPARFSGSGSGTDFTLTISSLQSEDFAVYYCHQYNNYPLTFGGGTKVEIKR
Result: 1.43e+06

Problem: Please give the documented kon of HC3 LC1 humanized Fab (Fab, V domains shown, also called VH3:VL1) VH: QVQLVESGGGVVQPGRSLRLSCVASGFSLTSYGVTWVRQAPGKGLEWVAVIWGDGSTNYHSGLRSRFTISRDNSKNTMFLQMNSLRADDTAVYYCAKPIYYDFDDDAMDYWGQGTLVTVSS VL: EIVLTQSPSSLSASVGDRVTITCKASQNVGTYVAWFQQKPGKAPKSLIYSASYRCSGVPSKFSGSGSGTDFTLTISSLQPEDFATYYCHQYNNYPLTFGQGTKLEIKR
Result: 1.66e+06
